# System: VchCAST RNA-guided transposition machinery (E. coli BL21(DE3) host, lacZ target)
# PROTOCOL NOTES: relative integration efficiency (T-RL orientation) vs wild-type transposon end (log2 (normalized fold change)); transposon end mutated: left end; higher = more efficient transposition
Grouping by measured relative integration efficiency (log2) is done with the following cut points: low (below -6), mid (-6 to below -3), high (-3 or more)

| SEQUENCE ENTRY | TGT | CLASSIFICATION |
| --- | --- | --- |
| AATGTTGTTGATGCAACCATAAAGTGATATAATTATTTATAATCAGCAACTTAACCACAAAACAACCATATATTGATATCTCACAAAACAACCATAAGTTGATATTTTTGTGAATCGAGTATTTCAGCAAAACTACTGCAGTAAGAAAGTTA | VchCAST RNA-guided transposition machinery (E. coli BL21(DE3) host, lacZ target) | low |
| AATGTTGTTGATGCAACCATAAAGTGATATTTAATAATTATTTACAACCATATATTGATATCTCACAAAACAACCATAAGTTGATATTTTTGTGAATCGAGTATTTCAGCAAAACTACTGCAGTAAGAAAGTTACTTCGTGGTATGGGAGGA | VchCAST RNA-guided transposition machinery (E. coli BL21(DE3) host, lacZ target) | mid |
| AATGTTGTTGATGCAACCATAAAGTGATATTTAATAATTATTTATAATCAGCAACTTAACCACAAAACAACCATATATTGATATCTCACAAAACAACCATAAGTTGATATTTGTGAATCGAGTATTTCAGCAAAACTACTGCAGTAAGAAAG | VchCAST RNA-guided transposition machinery (E. coli BL21(DE3) host, lacZ target) | high |
| AATGTTGTTGATGCAACCATAAAATGATAATTAATAATTATTTATAATCAGCAACTTAACCACAAAACAACCATAAAGTGATATTTAACAAAAGTTGGTATTCAACTATAAAATGTGAATCGAGTATTTCAGCAAAACTACTGCAGTAAGAA | VchCAST RNA-guided transposition machinery (E. coli BL21(DE3) host, lacZ target) | high |
| AATGTTGTTGATGCAACCATAAAGTGATATTTAATCCGGCGGGCGCCGACTACCAGGCCAACACCCCACCAACGCGCGGTCGCGAGACACCCCACCAACGCCTGGTCGCGGGGGTGTCCGATCTGATTTCAGCAAAACTACTGCAGTAAGAA | VchCAST RNA-guided transposition machinery (E. coli BL21(DE3) host, lacZ target) | low |

Exam item: Form: Item = AATGTTGTTGATACAACCATAAAATGATAATTACACCCATAAATTGATAATTATCACACCCATAAATTGATATTGCTGTGAATCGAGTATTTCAGCAAAACTACTGCAGTAAGAAAGTTACTTCGTGGTATGGGAGGATCAAGGAGCCAATA ; Class = ?
Marked response: high

Exam item: Form: Item = AATGTTGTTGATGCAACCATAAAGTGATATTTAATAATTATTTATAACAACCATATATTGATATCTCTCAGCAACTTAACCACAAAAACAAAACAACCATAAGTTGATATTTTTGTGAATCGAGTATTTCAGCAAAACTACTGCAGTAAGAA ; Class = ?
Marked response: mid

Exam item: Form: Item = AATGTTGTTGATGTGCAACCATAAAGTGATATTTAATAATTATTTATAATCAGCAACTTAACCACAAAACAACCATATATTGATATCTCACAAAACAACCATAAGTTGATATTTTTGTGAATCGAGTATTTCAGCAAAACTACTGCAGTAAG ; Class = ?
Marked response: low

Exam item: Form: Item = AATGTTGTTGATGCAACCATAAAGTGATATTTAATAATTATTTAGCCGACTACCAGGCCAACACCCCACCAACGCGCGGTCGCGAGACACCCCACCAACGCCTGGTCGCGGGGGTGTCCGATCTGATTTCAGCAAAACTACTGCAGTAAGAA ; Class = ?
Marked response: low

Exam item: Form: Item = AATGTTGTTGATGCAACCATAAAGTGATATTTAATAATTATTTATAATCAGCAACTTAACCACAAAATGTGAATCGAGTATTTCAGCCAACCATATATTGATATCTCACAAAACAACCATAAGTTGATATTTTAAAACTACTGCAGTAAGAA ; Class = ?
Marked response: mid

Exam item: Form: Item = AATGTTGTTGATGCAACCATAAAGTGATATTTACAACCATATATTGATATCTCTCACAACCATAAGTTGATATTTTTGTGAATCGAGTATTTCAGCAAAACTACTGCAGTAAGAAAGTTACTTCGTGGTATGGGAGGATCAAGGAGCCAATA ; Class = ?
Marked response: high

Exam item: Form: Item = AATGTTGTTGATGCAACCATAAAGTGATATTTAATAATTATTTATAATCAGCAACTTAACCACACAACCATATATTGATATCTCAAAACAAAACAACCATAAGTTGATATTTTTGTGAATCGAGTATTTCAGCAAAACTACTGCAGTAAGAA ; Class = ?
Marked response: high

Exam item: Form: Item = AATGTTGTTGATGCAACCATAAAGTGATATTTAATAACTTCGTATAGCATACATTATACGAAGTTATCAACCATATATTGATATCTCACAAAACAACCATAAGTTGATATTTTTGTGAATCGAGTATTTCAGCAAAACTACTGCAGTAAGAA ; Class = ?
Marked response: mid

Exam item: Form: Item = AATGTTGTTGATGCAACCATAAAGTGATATTTAATAATTATTTATAATCAGCAACTTAACCACAAAACAACCATATATTGATATCTCACAAAAACCAACGCCCTGTCGCGGGCTGTGAATCGAGTATTTCAGCAAAACTACTGCAGTAAGAA ; Class = ?
Marked response: high

Exam item: Form: Item = AATGTTGTTGATGCAACCATAAAGTGATATTTAATAATTATTTATAATCAGCAACTTAACCCAACCATATATTGATATCTCACAAAAACAAAACAACCATAAGTTGATATTTTTGTGAATCGAGTATTTCAGCAAAACTACTGCAGTAAGAA ; Class = ?
Marked response: mid

Exam item: Form: Item = AATGTTGTTGATGCAACCATAAAGTGATATTTAATAATTATTTATAATCAGCACAGGCCAACACCCCACCAACGCGCGGTCGCGAGACACCCCACCAACGCCTGGTCGCGGGGGTGTCCGATCTGATTTCAGCAAAACTACTGCAGTAAGAA ; Class = ?
Marked response: low

----------
# System: VchCAST RNA-guided transposition machinery (E. coli BL21(DE3) host, lacZ target)
# PROTOCOL NOTES: relative integration efficiency (T-RL orientation) vs wild-type transposon end (log2 (normalized fold change)); transposon end mutated: right end (5 bp flank + 75 bp right end); higher = more efficient transposition
Each item that follows carries a reported relative integration efficiency (log2).
I only need the number, thanks.

These solved cases illustrate the format of a correct answer.
| SEQUENCE ENTRY | TGT | METRIC | NUMERIC VALUE |
| --- | --- | --- | --- |
| ACATTTGTTGATACTACCATAAAATGATAATTACTCCCATAAATTGATAATTATCACTCCCATAAATTGATATTGCCTCTGATCATAGTCAGACCAACATTGCTACGACCCGTATTCGCACCGACAC | VchCAST RNA-guided transposition machinery (E. coli BL21(DE3) host, lacZ target) | relative integration efficiency (log2) | -0.805 |
| ACATTTGTTGATACAACCATAAAATGATAATTAATAATTATTTATAATCAGCAACTTAACCACAAAACACCCATAAATTGATAATTAACAACACCCATAAATTGATATTGCCTCTGATCATAGTCAG | VchCAST RNA-guided transposition machinery (E. coli BL21(DE3) host, lacZ target) | relative integration efficiency (log2) | -4.56 |
| ACATTTGTTGATACAACCATATATTGATATCTCCACCCATAAATTGATATTGCTCACACCCATAAATTGATAATTACTCTGATCATAGTCAGACCAACATTGCTACGACCCGTATTCGCACCGACAC | VchCAST RNA-guided transposition machinery (E. coli BL21(DE3) host, lacZ target) | relative integration efficiency (log2) | -0.617 |
| ACATTTGTTCATACAACCATAAAACGATAATTACACCCATAAATGGATAATTATCACACCCAATTTAACTATAACGCTCTGATCATAGTCAGACCAACATTGCTACGACCCGTATTCGCACCGACAC | VchCAST RNA-guided transposition machinery (E. coli BL21(DE3) host, lacZ target) | relative integration efficiency (log2) | -2.14 |
| ACATTTGTTGATAGTTGGTATTTTACTATTAATCACCCATAAATTGATAATTATCACACCCATAAATTGATATTGCCTCTGATCATAGTCAGACCAACATTGCTACGACCCGTATTCGCACCGACAC | VchCAST RNA-guided transposition machinery (E. coli BL21(DE3) host, lacZ target) | relative integration efficiency (log2) | -7.24 |

Record summary for ACATTTGTTGATACAACCATAAAATGATAATTACACCCATAAATTGATAATTATCACACCCATAAATTGATATTGCCTCTGATCATGGTGTCTCGCTTCAGCAGTCAGACCAACATTGCACCGACAC : reported relative integration efficiency (log2) = -0.125

Record summary for ACATTTGTTGCGACAACCATAAAATGATAATTACACCCATAAATTGATAATTATCACACCCATAAATTGATATTGCCTCTGATCATAGTCAGACCAACATTGCTACGACCCGTATTCGCACCGACAC : reported relative integration efficiency (log2) = -0.447

Record summary for ACATTTGTTGATACAACCATAAAATGATAATTACACCCATAAATTGATAATTATCACAGGGTTAAATTGATATTGCCTCTGATCATAGTCAGACCAACATTGCTACGACCCGTATTCGCACCGACAC : reported relative integration efficiency (log2) = -0.425

Record summary for ACATTTGTTGATACAACCATAAAATGATAATTACACCCATAAATTGATAATTATCACACCCATAAATTGATATTGCCTCTCCGACCCGGAAGAGGGCGCCTAGAATTGGGAGTGGTCGCACCGACAC : reported relative integration efficiency (log2) = 0.139

Record summary for ACATTTGTTGATACAACCATAAAATGATAATTACACCCATAAATTGATATTGCTCAGTGGGTATTTAACTATAACGCTCTGATCATAGTCAGACCAACATTGCTACGACCCGTATTCGCACCGACAC : reported relative integration efficiency (log2) = -0.891
